Test name: Pharmacokinetics of the composition after oral administration
Type: in vivo
Run conditions: rat, rats, serum, sample B 160 mg/kg or sample C (1:4) 200 mg/kg, read-out: AUC0-∞ of berberine
Assay metric: AUC(0-inf)

Query: AUC(0-inf) lookup needed for COc1ccc2cc3[n+](cc2c1OC)CCc1cc2c(cc1-3)OCO2 , thanks.
Result: 3440 µg·h/mL

====

Test name: Pharmacokinetics of the composition after oral administration
Type: in vivo
Run conditions: rat, rats, serum, sample A 40 mg/kg or sample C (1:4) 200 mg/kg, read-out: Cmax of mangiferin
Assay metric: Cmax (ng/mL)
Hi! Could you send only the number? It should be in ng/mL, unit omitted.

Query: Record request: Cmax value, item O=c1c2cc(O)c(O)cc2oc2cc(O)c([C@@H]3O[C@H](CO)[C@@H](O)[C@H](O)[C@H]3O)c(O)c12
Result: 18600

Taken from patent US7867979B2.
